Taken from patent US20240270776A1.

# System: DLD1 (colon cancer)
# test_method_notes: IC50 against tumor cell line DLD1, CellTiter-Glo cell viability
# Type: cell-based
# conditions_used: DLD1 cells, 96 hours, mean ± standard deviation of triplicate
test_readout: IC50 (µM)

[[record]]
molecule = "N.N.[Cl][Pt][Cl] [CISPLATIN, cis-diaminodichloroplatin (II)]"
observed_value = 0.63


====

# Tested on: MDA-MB231 (triple-negative breast cancer)
# test_method_notes: IC50 against tumor cell line MDA-MB231, CellTiter-Glo cell viability
# Assay type: cell-based
# conditions_used: MDA-MB231 cells, 96 hours, mean ± standard deviation of triplicate
test_readout: IC50 (µM)

[[record]]
molecule = "N.N.[Cl][Pt][Cl] [CISPLATIN, cis-diaminodichloroplatin (II)]"
study_target = "MDA-MB231 (triple-negative breast cancer)"
units = "µM"
observed_value = 37


====

# Test system: A2780 (ovarian cancer)
# test_method_notes: IC50 against tumor cell line A2780, CellTiter-Glo cell viability
# Assay type: cell-based
# conditions_used: A2780 cells, 96 hours, mean ± standard deviation of triplicate
test_readout: IC50 (µM)

[[record]]
compound = "N.N.[Cl][Pt][Cl] [CISPLATIN, cis-diaminodichloroplatin (II)]"
study_target = "A2780 (ovarian cancer)"
observed_value = 0.4

